Values from patent EP4667458A1

- MEASUREMENT TARGET: KRAS^G12C::SOS1 (Homo sapiens, UniProt Q07889)
- Sequence (Q07889 whole entry, stated change not applied): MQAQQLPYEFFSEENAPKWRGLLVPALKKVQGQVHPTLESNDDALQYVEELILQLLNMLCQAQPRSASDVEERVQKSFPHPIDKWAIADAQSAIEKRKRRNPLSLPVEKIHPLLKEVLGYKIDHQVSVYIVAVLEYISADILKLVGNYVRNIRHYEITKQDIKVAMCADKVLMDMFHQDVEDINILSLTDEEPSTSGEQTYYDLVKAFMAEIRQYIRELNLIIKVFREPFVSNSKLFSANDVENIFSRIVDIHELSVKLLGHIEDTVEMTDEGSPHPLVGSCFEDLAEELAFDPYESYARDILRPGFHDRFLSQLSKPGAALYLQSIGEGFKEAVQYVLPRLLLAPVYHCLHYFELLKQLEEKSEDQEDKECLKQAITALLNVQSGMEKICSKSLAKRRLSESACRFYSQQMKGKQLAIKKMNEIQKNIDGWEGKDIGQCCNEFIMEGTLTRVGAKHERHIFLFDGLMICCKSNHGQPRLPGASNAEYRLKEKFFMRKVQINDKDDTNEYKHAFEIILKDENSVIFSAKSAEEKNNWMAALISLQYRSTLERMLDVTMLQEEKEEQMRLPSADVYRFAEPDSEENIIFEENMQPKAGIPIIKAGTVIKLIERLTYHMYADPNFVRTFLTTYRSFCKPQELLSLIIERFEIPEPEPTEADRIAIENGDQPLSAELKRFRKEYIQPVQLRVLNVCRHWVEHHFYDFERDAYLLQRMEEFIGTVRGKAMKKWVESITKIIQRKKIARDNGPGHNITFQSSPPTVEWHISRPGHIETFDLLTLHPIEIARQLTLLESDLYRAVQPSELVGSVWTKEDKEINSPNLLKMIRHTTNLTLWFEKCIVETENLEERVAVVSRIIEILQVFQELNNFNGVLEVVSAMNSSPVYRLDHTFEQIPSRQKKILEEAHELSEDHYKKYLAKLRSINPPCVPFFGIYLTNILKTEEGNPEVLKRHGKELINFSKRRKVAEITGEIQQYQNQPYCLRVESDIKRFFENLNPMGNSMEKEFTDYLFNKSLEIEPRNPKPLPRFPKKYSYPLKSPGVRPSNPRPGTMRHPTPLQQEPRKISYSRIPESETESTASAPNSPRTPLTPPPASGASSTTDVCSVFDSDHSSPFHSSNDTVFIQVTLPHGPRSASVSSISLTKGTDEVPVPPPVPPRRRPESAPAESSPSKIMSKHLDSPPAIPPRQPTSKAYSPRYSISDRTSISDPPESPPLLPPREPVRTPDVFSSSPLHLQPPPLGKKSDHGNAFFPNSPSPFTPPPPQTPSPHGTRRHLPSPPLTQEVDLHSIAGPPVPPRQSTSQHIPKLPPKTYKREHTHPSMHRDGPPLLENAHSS
- EXPERIMENT SUMMARY: KRAS G12C::SOS1 protein-protein interaction (PPI) inhibition assay (HTRF binding kit)
- CONDITION INFO: read-out: KRAS ^G12C::SOS1 PPI assay (IC50 range, Grade); maximum concentration 3 µM, 8 concentrations, three replicates
pIC50: −log10 of the molar value.
MEASURED ENDPOINT: pIC50

# return pIC50 for CNCc1ccc(F)cc1-c1ccc([C@@H](C)NC(=O)c2ccc(=O)n(-c3cccnc3O)n2)s1 [Example 408] , test system: KRAS^G12C::SOS1 (Homo sapiens, UniProt Q07889)
> 6.00

###

- MEASUREMENT TARGET: SOS1 (Homo sapiens)
- Construct: adding equal amounts of HIS-SOS1cat (160 nM; Cytoskeleton, US); His; purchased Cytoskeleton, US
- Sequence (Q07889 564-1049 limits assumed): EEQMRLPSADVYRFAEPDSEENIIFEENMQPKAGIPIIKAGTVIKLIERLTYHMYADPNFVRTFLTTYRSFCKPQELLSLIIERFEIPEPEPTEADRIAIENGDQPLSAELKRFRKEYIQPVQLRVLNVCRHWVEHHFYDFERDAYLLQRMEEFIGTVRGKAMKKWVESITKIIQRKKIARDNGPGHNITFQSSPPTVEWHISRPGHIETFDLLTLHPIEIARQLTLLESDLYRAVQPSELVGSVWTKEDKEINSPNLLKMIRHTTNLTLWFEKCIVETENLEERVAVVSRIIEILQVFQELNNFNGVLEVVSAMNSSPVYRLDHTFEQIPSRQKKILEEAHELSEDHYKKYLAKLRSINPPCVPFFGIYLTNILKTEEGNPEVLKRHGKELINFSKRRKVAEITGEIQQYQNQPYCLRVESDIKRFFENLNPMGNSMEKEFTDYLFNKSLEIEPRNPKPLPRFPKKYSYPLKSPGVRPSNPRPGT
- EXPERIMENT SUMMARY: SOS-catalyzed nucleotide exchange assay (HTRF, SOS1-mediated GTP loading of KRAS G12D)
- Type: biochemical
- CONDITION INFO: GST-KRAS G12D, HIS-SOS1cat, EDA-GTP-DY-647P1; compound 128 pM to 10 µM; read-out: SOS-catalyzed nucleotide exchange assay (IC50 range, Grade)
pIC50: −log10 of the molar value.
pIC50 reference

| COMPOUND | MEASUREMENT TARGET | pIC50 |
| --- | --- | --- |
| C[C@@H](NC(=O)c1ccc(=O)n(-c2cccc(N3CCNC3=O)c2)c1)c1cc(N)cc(C(F)(F)F)c1 [Example 85] | SOS1 (Homo sapiens) | > 6.00 |

# return pIC50 for C[C@@H](NC(=O)c1ccc(=O)n(C2=CCCCC2)n1)c1cc(N)cc(C(F)(F)F)c1 [Example 65] , test system: SOS1 (Homo sapiens)
> 6.00

# return pIC50 for CC(=O)Nc1cc(-n2cc(C(=O)N[C@H](C)c3cc(N)cc(C(F)(F)F)c3)ccc2=O)ccc1F [Example 113] , test system: SOS1 (Homo sapiens)
> 6.00

# return pIC50 for Cc1ccc([C@@H](C)NC(=O)c2ccc(=O)n(-c3ccccc3)n2)cc1 [Example 7] , test system: SOS1 (Homo sapiens)
< 5.00

###

- MEASUREMENT TARGET: SOS1 (Homo sapiens)
- Construct: adding equal amounts of HIS-SOS1cat (160 nM; Cytoskeleton, US); His; purchased Cytoskeleton, US
- EXPERIMENT SUMMARY: SOS-catalyzed nucleotide exchange assay (HTRF, SOS1-mediated GTP loading of KRAS G12D)
- Assay type: biochemical
- CONDITION INFO: GST-KRAS G12D, HIS-SOS1cat, EDA-GTP-DY-647P1; compound 128 pM to 10 µM; read-out: SOS-catalyzed nucleotide exchange assay (IC50 range, Grade)
pIC50: −log10 of the molar value.
MEASURED ENDPOINT: pIC50

| MOL SMILES | MEASUREMENT TARGET | pIC50 |
| --- | --- | --- |
| CC(=O)Nc1cccc(-n2nc(C(=O)N[C@H](C)c3cccc(C(F)(F)CO)c3)ccc2=O)c1 | SOS1 (Homo sapiens) | 5.00 to 6.00 |
| Cc1c([C@@H](C)NC(=O)c2ccc(=O)n(-c3cncc(-c4ccnn4C)c3)n2)cc(N)cc1C(F)(F)F | SOS1 (Homo sapiens) | > 6.00 |
| C[C@@H](NC(=O)c1ccc(=O)n(-c2ccccc2O)n1)c1cc(N)cc(C(F)(F)F)c1 | SOS1 (Homo sapiens) | > 6.00 |

Give the reported value of pIC50 for this record: CC(=O)N1CC=C(n2nc(C(=O)N[C@H](C)c3cc(N)cc(C(F)(F)F)c3)ccc2=O)CC1
> 6.00

Give the reported value of pIC50 for this record: C[C@@H](NC(=O)c1ccc(=O)n(C2CCS(=O)(=O)CC2)n1)c1cc(N)cc(C(F)(F)F)c1
5.00 to 6.00
